target_under_test: His-hSHIP1 enzyme (Homo sapiens, UniProt Q92835)
Construct: His
Sequence (Q92835 1-1189): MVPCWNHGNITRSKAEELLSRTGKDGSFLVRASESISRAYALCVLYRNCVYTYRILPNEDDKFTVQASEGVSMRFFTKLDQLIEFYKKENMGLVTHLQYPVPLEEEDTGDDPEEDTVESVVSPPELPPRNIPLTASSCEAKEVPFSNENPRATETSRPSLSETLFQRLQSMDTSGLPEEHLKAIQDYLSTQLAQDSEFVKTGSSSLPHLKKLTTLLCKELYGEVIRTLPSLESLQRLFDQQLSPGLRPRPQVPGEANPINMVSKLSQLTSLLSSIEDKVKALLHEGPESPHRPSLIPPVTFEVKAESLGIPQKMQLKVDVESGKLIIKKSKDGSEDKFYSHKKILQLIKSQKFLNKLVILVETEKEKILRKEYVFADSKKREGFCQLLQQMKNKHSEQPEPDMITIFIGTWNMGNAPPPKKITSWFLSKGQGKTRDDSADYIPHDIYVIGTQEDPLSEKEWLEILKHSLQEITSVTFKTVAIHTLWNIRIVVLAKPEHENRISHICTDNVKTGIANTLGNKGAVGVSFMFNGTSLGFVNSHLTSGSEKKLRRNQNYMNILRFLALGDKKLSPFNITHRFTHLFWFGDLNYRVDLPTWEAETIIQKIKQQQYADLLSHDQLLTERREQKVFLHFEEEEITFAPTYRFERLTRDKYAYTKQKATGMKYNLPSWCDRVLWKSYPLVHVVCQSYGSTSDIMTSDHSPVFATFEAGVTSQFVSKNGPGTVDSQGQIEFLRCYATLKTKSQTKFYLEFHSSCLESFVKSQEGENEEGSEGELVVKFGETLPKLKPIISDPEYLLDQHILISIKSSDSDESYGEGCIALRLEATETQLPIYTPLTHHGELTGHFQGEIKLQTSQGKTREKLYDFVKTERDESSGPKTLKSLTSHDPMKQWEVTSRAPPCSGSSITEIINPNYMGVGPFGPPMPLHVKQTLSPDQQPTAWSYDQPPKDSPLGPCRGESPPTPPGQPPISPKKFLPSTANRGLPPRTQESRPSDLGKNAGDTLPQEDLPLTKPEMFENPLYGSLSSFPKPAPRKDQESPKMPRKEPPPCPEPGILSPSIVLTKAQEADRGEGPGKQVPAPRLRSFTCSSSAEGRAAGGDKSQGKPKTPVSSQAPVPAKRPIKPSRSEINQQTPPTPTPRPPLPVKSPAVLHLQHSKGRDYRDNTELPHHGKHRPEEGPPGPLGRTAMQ
experiment: His-hSHIP1 activity (phosphatase assay, IP4 substrate, Biomol Green)
Format: biochemical
Design: key: +++: higher than reference or reference - 15%; ++: reference - 16% to reference - 30%; +: reference - 31% or lower; −: inhibitor
condition_details: ratio of initial velocities (IP4 25/IP4 250 μM final) compared with a reference SHIP1 activator; 37° C.
recorded_endpoint: Scoring (Initial Velocity Ratio)

Consider the following illustrative entries.
Prompt: Which measured Scoring (Initial Velocity Ratio) value corresponds to C[C@]1([C@H]2CC[C@@]3(C)[C@@H](CC[C@@]3(O)c3ccccc3)[C@@H]2CO)CC[C@H](O)C[C@@H]1CO [compound 26] ?
Response: −

Prompt: Which measured Scoring (Initial Velocity Ratio) value corresponds to C[C@]1([C@H]2CC[C@@]3(C)[C@@H](CC[C@@]3(O)c3nccs3)[C@@H]2CN)CC[C@H](O)C[C@@H]1CO [compound 20] ?
Response: ++

Prompt: Which measured Scoring (Initial Velocity Ratio) value corresponds to C[C@]1([C@H]2CC[C@]3(C)c4ncccc4C[C@H]3[C@@H]2CN)CC[C@H](O)C[C@@H]1CO [compound 9] ?
Response: ++

Prompt: Which measured Scoring (Initial Velocity Ratio) value corresponds to C[C@]1([C@H]2CC[C@]3(C)C(c4ccco4)=CC[C@H]3[C@@H]2CO)CC[C@H](O)C[C@@H]1CO [compound 30] ?
Response: +

Prompt: Which measured Scoring (Initial Velocity Ratio) value corresponds to C[C@]1([C@H]2CC[C@]3(C)C(c4ccco4)=CC[C@H]3[C@@H]2CN)CC[C@H](O)C[C@@H]1CO [compound 13] ?
Response: +

***
Prompt: Which measured Scoring (Initial Velocity Ratio) value corresponds to C[C@]1([C@H]2CCC3=C(C[C@@H](O)[C@@]3(C)c3ccccc3)[C@@H]2CN)CC[C@H](O)C[C@@H]1CO [compound 19] ?
Response: ++

Prompt: Which measured Scoring (Initial Velocity Ratio) value corresponds to CN/C(=N\C#N)NC[C@H]1C2=C(CC[C@@H]1[C@@]1(C)CC[C@H](O)C[C@@H]1CO)C(C)(C)CC2 [compound 3] ?
Response: ++

Prompt: Which measured Scoring (Initial Velocity Ratio) value corresponds to C[C@@H]1CC[C@@]2(OC1)O[C@H]1C[C@H]3[C@H](CO)[C@@H]([C@@]4(C)CC[C@H](O)C[C@@H]4CO)CC[C@]3(C)[C@H]1[C@@H]2C [compound 29] ?
Response: ++

Prompt: Which measured Scoring (Initial Velocity Ratio) value corresponds to C=C1CC[C@H]2[C@H](CO)[C@@H]([C@@]3(C)CC[C@H](NC(C)=O)C[C@@H]3CO)CC[C@]12C [compound 32] ?
Response: ++

Prompt: Which measured Scoring (Initial Velocity Ratio) value corresponds to C=C1CC[C@H]2[C@H](CO)[C@@H]([C@@]3(C)Cc4cn[nH]c4C[C@@H]3CO)CC[C@]12C [compound 21] ?
Response: +

Prompt: Which measured Scoring (Initial Velocity Ratio) value corresponds to C#C[C@]1(O)CC[C@H]2[C@H](CO)[C@@H]([C@@]3(C)CC[C@H](O)C[C@@H]3CO)CC[C@@]21C [compound 28] ?
Response: ++

Prompt: Which measured Scoring (Initial Velocity Ratio) value corresponds to C[C@]1([C@H]2CC[C@@]3(C)[C@@H](CC[C@@]3(O)c3ccccn3)[C@@H]2CN)CC[C@H](O)C[C@@H]1CO [compound 17] ?
Response: −

Prompt: Which measured Scoring (Initial Velocity Ratio) value corresponds to C=C1CC[C@H]2[C@H](CO)[C@@H]([C@@]3(C)Cc4sc(C)nc4C[C@@H]3CO)CC[C@]12C [compound 24] ?
Response: ++

Prompt: Which measured Scoring (Initial Velocity Ratio) value corresponds to CC1(C)CCC2=C1CC[C@H]([C@@]1(C)Cc3cnoc3C[C@@H]1CO)[C@H]2CO [compound 23] ?
Response: +++

Prompt: Which measured Scoring (Initial Velocity Ratio) value corresponds to C[C@]1([C@H]2CC[C@]3(C)C(c4ccccc4)=CC[C@H]3[C@@H]2CO)CC[C@H](O)C[C@@H]1CO [compound 25] ?
Response: ++

Prompt: Which measured Scoring (Initial Velocity Ratio) value corresponds to C[C@]1([C@H]2CC[C@]3(C)c4[nH]ncc4C[C@H]3[C@@H]2CO)CC[C@H](O)C[C@@H]1CO [compound 33] ?
Response: +

Prompt: Which measured Scoring (Initial Velocity Ratio) value corresponds to C[C@]1([C@H]2CC[C@]3(C)C(c4cccs4)=CC[C@H]3[C@@H]2CN)CC[C@H](O)C[C@@H]1CO [compound 16] ?
Response: +

Prompt: Which measured Scoring (Initial Velocity Ratio) value corresponds to C[C@]1([C@H]2CC[C@@]3(C)[C@@H](CC[C@@]3(O)c3cccs3)[C@@H]2CO)CC[C@H](O)C[C@@H]1CO [compound 34] ?
Response: +

Prompt: Which measured Scoring (Initial Velocity Ratio) value corresponds to C[C@]1([C@H]2CC[C@@]3(C)[C@@H](CC[C@@]3(O)c3ccccn3)[C@@H]2CO)CC[C@H](O)C[C@@H]1CO [compound 36] ?
Response: ++

====

target_under_test: His-hSHIP1 enzyme (Homo sapiens, UniProt Q92835)
Construct: His
experiment: His-hSHIP1 activity (phosphatase assay, IP4 substrate, Biomol Green)
Format: biochemical
Parameters: key: +++: higher than reference or reference - 15%; ++: reference - 16% to reference - 30%; +: reference - 31% or lower; −: inhibitor
condition_details: ratio of initial velocities (IP4 25/IP4 250 μM final) compared with a reference SHIP1 activator; 37° C.
recorded_endpoint: Scoring (Initial Velocity Ratio)

Consider the following illustrative entries.
Prompt: Notebook: pull reported Scoring (Initial Velocity Ratio) for His-hSHIP1 enzyme (Homo sapiens, UniProt Q92835), entry C=C1CC[C@H]2[C@H](CO)[C@@H]([C@@]3(C)Cc4conc4C[C@@H]3CO)CC[C@]12C [compound 22]
Response: ++

Prompt: Notebook: pull reported Scoring (Initial Velocity Ratio) for His-hSHIP1 enzyme (Homo sapiens, UniProt Q92835), entry C[C@]1([C@H]2CCC3=C(C[C@@H](O)[C@@]3(C)c3ccccc3)[C@@H]2CO)CC[C@H](O)C[C@@H]1CO [compound 37]
Response: +

Prompt: Notebook: pull reported Scoring (Initial Velocity Ratio) for His-hSHIP1 enzyme (Homo sapiens, UniProt Q92835), entry C[C@]1([C@H]2CC[C@]3(C)C(c4ccccc4)=CC[C@H]3[C@@H]2CN)CC[C@H](O)C[C@@H]1CO.Cl [compound 10]
Response: ++

Prompt: Notebook: pull reported Scoring (Initial Velocity Ratio) for His-hSHIP1 enzyme (Homo sapiens, UniProt Q92835), entry C[C@]1([C@H]2CC[C@@]3(C)[C@@H](CC[C@@]3(O)c3ccco3)[C@@H]2CN)CC[C@H](O)C[C@@H]1CO [compound 12]
Response: +++

Prompt: Notebook: pull reported Scoring (Initial Velocity Ratio) for His-hSHIP1 enzyme (Homo sapiens, UniProt Q92835), entry CC(=O)O.CC1(C2CCC3(C)C(CCC3(O)c3ccccc3)C2CN)CCC(O)CC1CO (stereo not drawn) [compound 11]
Response: −

***
Prompt: Notebook: pull reported Scoring (Initial Velocity Ratio) for His-hSHIP1 enzyme (Homo sapiens, UniProt Q92835), entry CC1(C)CCC2=C1CC[C@H]([C@@]1(C)CC[C@H](O)C[C@@H]1CO)[C@H]2CNC(=O)c1cccnc1 [compound 1]
Response: +
